species: Rattus norvegicus; assay: Open TG-GATES - Regimen: Daily Repeat; assay type: toxicity, organism-based, Sprague-Dawley; parameters: regimen Daily Repeat, gender Male, age 6 weeks; settings: in vivo, po, 1000 mg/kg, […], tissue Blood, route gavage, dose level High, time 28 day
readout.name: Bas (%)
Reply with just the number (in %).

**Query** Reported Bas, molecule COC1=CC(=O)C[C@@H](C)[C@]12Oc1c(Cl)c(OC)cc(OC)c1C2=O : ____
**Result** 0

**Query** Reported Bas, molecule CCOC(=O)CCC(=O)O[C@H]1[C@H](O[C@@H]2[C@@H](C)[C@H](O[C@H]3C[C@@](C)(OC)[C@@H](O)[C@H](C)O3)[C@@H](C)C(=O)O[C@H](CC)[C@@](C)(O)[C@H](O)[C@@H](C)C(=O)[C@H](C)C[C@@]2(C)O)O[C@H](C)C[C@@H]1N(C)C [ERYTHROMYCIN ETHYLSUCCINATE] : ____
**Result** 0

**Query** Reported Bas, molecule COc1ccc2[nH]c([S+]([O-])Cc3ncc(C)c(OC)c3C)nc2c1 (stereo unspecified) : ____
**Result** 0

**Query** Reported Bas, molecule CCOc1ccc(NC(=O)CC(C)O)cc1 (stereo unspecified) : ____
**Result** 0.6

**Query** Reported Bas, molecule NC(N)=Nc1nc(CSCCC(N)=NS(N)(=O)=O)cs1 : ____
**Result** 0

**Query** Reported Bas, molecule CC(C)OC(=O)C(C)(C)Oc1ccc(C(=O)c2ccc(Cl)cc2)cc1 [FENOFIBRATE] : ____
**Result** 0.4

###

I'd appreciate it if you could supply CRE values for the items below.
organism: Rattus norvegicus; assay: Open TG-GATES - Regimen: Single; type: toxicity, organism-based, Sprague-Dawley; design: regimen Single, gender Male, age 6 weeks; conditions: in vivo, po, 10 mg/kg, 9 h, tissue Plasma, route gavage, dose level Low
Reply with just the number (in mg/dL).

**Query** Reported CRE, compound CC(C)OC(=O)C(C)(C)Oc1ccc(C(=O)c2ccc(Cl)cc2)cc1 [FENOFIBRATE] : ____
**Result** 0.1

**Query** Reported CRE, compound CN(C)CCN(Cc1cccs1)c1ccccn1 : ____
**Result** 0.1

**Query** Reported CRE, compound CC1=C(/C=C/C(C)=C/C=C/C(C)=C/CO)C(C)(C)CCC1 [RETINOL] : ____
**Result** 0.1

**Query** Reported CRE, compound CN(C)CCCN1c2ccccc2CCc2ccc(Cl)cc21 [CLOMIPRAMINE] : ____
**Result** 0.2

**Query** Reported CRE, compound CN(C)CCCN1c2ccccc2CCc2ccccc21 [IMIPRAMINE] : ____
**Result** 0.1

###

I'd appreciate it if you could supply KIDNEY_TOTAL values for the items below.
species on record: Rattus norvegicus; assay: Open TG-GATES - Regimen: Single; type: toxicity, organism-based, Sprague-Dawley; design: regimen Single, gender Male, age 6 weeks; details: in vivo, po, 100 mg/kg, 3 h, tissue Kidney, route gavage, dose level High

**Query** Reported KIDNEY_TOTAL, molecule CN(C)CCN(Cc1cccs1)c1ccccn1 : ____
**Result** 1.7 g

**Query** Reported KIDNEY_TOTAL, molecule CN(C)CCCN1c2ccccc2CCc2ccccc21 [IMIPRAMINE] : ____
**Result** 1.8 g

**Query** Reported KIDNEY_TOTAL, molecule CN(C)CCCN1c2ccccc2CCc2ccc(Cl)cc21 [CLOMIPRAMINE] : ____
**Result** 1.9 g

**Query** Reported KIDNEY_TOTAL, molecule CC1=C(/C=C/C(C)=C/C=C/C(C)=C/CO)C(C)(C)CCC1 [RETINOL] : ____
**Result** 1.8 g
